ASSAY: Surfactant Foaming Test in tap water
Type: physicochemical
Design: key: A: No Foam Generated; B: Small Volume of Foam Generated; C: Large Volume of Foam Generated
CONDITION_SET: surfactant 0.023 wt %, tap water 7.0 mL, 23° C., shaken vigorously, foaming recorded after standing 3 minutes
MEASUREMENT_TYPE: Surfactant Foaming Test Results

COMPOUND | Surfactant Foaming Test Results
CCCCCCCCCC(C)c1ccc(COCCOCCOCCOCCO)cc1 (centres unmarked) | C
CCCCCCCCCCC(C)c1ccc(CO)cc1 (centres unmarked) | A
CCCCCCCCCCCC(C)c1ccc(COCCOCCOCCOCCO)cc1 (centres unmarked) | C
CCCCCCCCCC(C)c1ccc(COCCOCCOCCOCCOC)cc1 (centres unmarked) | B
CCCCCCCCCCC(C)c1ccc(COCCO)cc1 (centres unmarked) | A

Return reported Surfactant Foaming Test Results. Input compound: CCCCCCCCCCCCC(C)c1ccc(COCCO)cc1 (centres unmarked) A

Return reported Surfactant Foaming Test Results. Input compound: CCCCCCCCCCCCC(C)c1ccc(COCCOCCOCCOCCOC)cc1 (centres unmarked) B

Return reported Surfactant Foaming Test Results. Input compound: CCCCCCCCCC(C)c1ccc(COCCOCCOCCO)cc1 (centres unmarked) C

* * *

ASSAY: Surfactant Foaming Test in tap water
Assay type: physicochemical
Parameters: key: A: No Foam Generated; B: Small Volume of Foam Generated; C: Large Volume of Foam Generated
CONDITION_SET: surfactant 0.023 wt %, tap water 7.0 mL, 23° C., shaken vigorously, foaming recorded after standing 3 minutes
MEASUREMENT_TYPE: Surfactant Foaming Test Results

Take a look at these entries with their results.
COMPOUND | Surfactant Foaming Test Results
CCCCCCCCCCCC(C)c1ccc(COCCOCCOCCO)cc1 (centres unmarked) | C
CCCCCCCCCCCCC(C)c1ccccc1 (centres unmarked) | A
CCCCCCCCCCCC(C)c1ccccc1 (centres unmarked) | A
CCCCCCCCCCC(C)c1ccc(COCCOCCOCCO)cc1 (centres unmarked) | C

Note: attention shifts to another entry.
Return reported Surfactant Foaming Test Results. Input compound: CCCCCCCCCC(C)c1ccc(COCCO)cc1 (centres unmarked) A

* * *

ASSAY: Surfactant Foaming Test in tap water
Format: physicochemical
Set-up: key: A: No Foam Generated; B: Small Volume of Foam Generated; C: Large Volume of Foam Generated
CONDITION_SET: surfactant 0.023 wt %, tap water 7.0 mL, 23° C., shaken vigorously, foaming recorded after standing 3 minutes
MEASUREMENT_TYPE: Surfactant Foaming Test Results

Take a look at these entries with their results.
COMPOUND | MEASUREMENT
CCCCCCCCC(C)c1ccc(COCCOCCOCCOC)cc1 (centres unmarked) | A
CCCCCCCCC(C)c1ccc(CO)cc1 (centres unmarked) | A
CCCCCCCCCCCC(C)c1ccc(COCCO)cc1 (centres unmarked) | A
CCCCCCCCCCCCC(C)c1ccc(COCCOC)cc1 (centres unmarked) | C
CCCCCCCCCCCC(C)c1ccc(COCCOCCOCCOCCOC)cc1 (centres unmarked) | B
CCCCCCCCC(C)c1ccc(COCCOCCOCCOCCOC)cc1 (centres unmarked) | C

Return reported Surfactant Foaming Test Results. Input compound: CCCCCCCCCCCCC(C)c1ccc(COCCOCCOCCO)cc1 (centres unmarked) C

Return reported Surfactant Foaming Test Results. Input compound: CCCCCCCCC(C)c1ccc(COCCOCCOCCO)cc1 (centres unmarked) C

Return reported Surfactant Foaming Test Results. Input compound: CCCCCCCCCCCCCCC(C)c1ccc(COCCO)cc1 (centres unmarked) A

Return reported Surfactant Foaming Test Results. Input compound: CCCCCCCCCCCCCCC(C)c1ccccc1 (centres unmarked) A

Return reported Surfactant Foaming Test Results. Input compound: CCCCCCCCCCCC(C)c1ccc(COCCOC)cc1 (centres unmarked) C

Return reported Surfactant Foaming Test Results. Input compound: CCCCCCCCCCC(C)c1ccc(COCCOCCOCCOC)cc1 (centres unmarked) B

Return reported Surfactant Foaming Test Results. Input compound: CCCCCCCCCCC(C)c1ccc(COCCOCCOCCOCCO)cc1 (centres unmarked) C

Return reported Surfactant Foaming Test Results. Input compound: CCCCCCCCCCCCCCC(C)c1ccc(COCCOCCOCCOCCOC)cc1 (centres unmarked) B

Return reported Surfactant Foaming Test Results. Input compound: CCCCCCCCCCC(C)c1ccccc1 (centres unmarked) A

Return reported Surfactant Foaming Test Results. Input compound: CCCCCCCCCCCCC(C)c1ccc(CO)cc1 (centres unmarked) A

Return reported Surfactant Foaming Test Results. Input compound: CCCCCCCCC(C)c1ccc(COCCOC)cc1 (centres unmarked) B
